Sourced from paper PMC5679212

Biological target: MLKL (mixed lineage kinase domain-like) (Homo sapiens, UniProt Q8NB16)
Sequence (Q8NB16 190-471 limits assumed): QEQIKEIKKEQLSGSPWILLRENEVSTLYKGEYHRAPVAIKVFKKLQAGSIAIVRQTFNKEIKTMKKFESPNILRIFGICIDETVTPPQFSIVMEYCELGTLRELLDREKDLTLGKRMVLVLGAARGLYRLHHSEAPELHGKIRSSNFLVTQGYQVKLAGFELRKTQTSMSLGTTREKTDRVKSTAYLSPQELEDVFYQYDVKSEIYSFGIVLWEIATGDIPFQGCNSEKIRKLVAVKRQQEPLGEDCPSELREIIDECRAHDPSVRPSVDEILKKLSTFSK
pKd: −log10 of the molar value.
VALUE KIND: pKd

Item Nc1ncnc2c1ncn2[C@@H]1O[C@H](COP(=O)(O)OP(=O)(O)OP(=O)(O)O)[C@@H](O)[C@H]1O [ATP] has what recorded pKd?
~4.82
